Values were extracted from the supplement of paper PMC6089552.

System: A673/TR/shEF
Test: cell viability (LOESS-normalised, relative to median of negative controls) (log2 ratio); higher = more viable cells (less compound effect), active = hit call of the paper (over 3 MAD below the median)
Settings: 0.25 µM; library screen: screen1; EWS-FLI1 expression: high (no doxycycline); treatment time: 72 h
About 300 (9.4%) of roughly 3,200 compounds showed activity. Only a selection was taken, and actives are over-represented in it overall.
Please note: cell viability (log2) exactly at 0.1 is Criterion not met. Only values below 0.1 get Criterion met.

| compound | category_label |
| --- | --- |
| O=C(O)[C@@H]1C2CC3c4[nH]c5ccccc5c4CCN3CC2CC[C@@H]1O (stereo partly drawn) | Criterion met |
| COc1cc(CN2CCN(Cc3cccnc3)CC2)cc(OC)c1OC | Criterion met |
| COc1ccccc1NC1CC(C)N(C(=O)c2ccc(C)cc2)c2c(C)cccc21 (stereo not drawn) | Criterion not met |
| COc1cc(OC)c(OC)cc1CN1CCN(Cc2cccnc2)CC1 | Criterion met |
| COc1ccc(-c2coc3cc(O)ccc3c2=O)cc1 | Criterion met |
| CC(C)(C)c1ccccc1OCC(O)CN1CCCCC1 (stereo not drawn) | Criterion met |
| O=c1c(-c2ccc3c(c2)OCO3)coc2cc(O)ccc12 | Criterion not met |
| Nc1ncnc2nc[nH]c12 | Criterion met |
| CC(C)N1C(=O)C(=Cc2cccs2)SC1=S | Criterion not met |
| Nc1ncc2[nH]cnc2n1 | Criterion not met |
| COc1c2c(cc3occ(-c4ccc5c(c4)OCO5)c(=O)c13)OC(C)(C)C=C2 | Criterion met |
